These entries and their values trace back to ChEMBL document CHEMBL6092156.

tested on: REH; experiment: Antiproliferative activity against human menin-insensitive REH cells assessed as inhibition of cell growth incubated for 7 days by MTS assay; type: functional, cell-based; conditions: 168 h
measured_parameter: IC50

[[record]]
smiles_representation = "CCN(C(=O)c1cc(F)ccc1Nc1cncnc1N1CCN(CC2CN(c3ccc(S(=O)(=O)N4CC[C@H](NC(=O)/C=C/CN(C)C)C4)cc3)C2)CC1)C(C)C"
assay_result = "> 20 µM"

[[record]]
smiles_representation = "CCN(C(=O)c1cc(F)ccc1Nc1cncnc1N1CCN(CC2CN(c3ccc(NC(=O)/C=C/CN(C)C)cc3)C2)CC1)C(C)C"
assay_result = "> 20 µM"

[[record]]
smiles_representation = "CCN(C(=O)c1cc(F)ccc1Nc1cncnc1N1CCN(C(=O)C2CN(c3ccc(S(=O)(=O)C4CN(C(=O)/C=C/CN(C)C)C4)cc3)C2)CC1)C(C)C"
assay_result = "> 20 µM"

